Kindly state AC50 for each of the entries shown.
tested on: Clone20 osteoblast Shn3 3'UTR firefly luciferase, 24 h; experiment: Shn3 3'UTR reporter inhibitors, dose response, cell-based, Clone20 osteoblasts, luminescence, dry powder, set 2 (AID 743417)
Records with an inconclusive call do not appear.

Here is how some molecules turned out for AC50.
Cc1ccc(C)c(N2CCN(C(=O)CCS(=O)(=O)c3ccc4c(c3)NC(=O)C(C)S4)CC2)c1 (stereo unspecified): 4.47 µM
CC(O)(c1ccncc1)c1nc(-c2cccc(C(F)(F)F)c2)cs1 (stereo unspecified): 5.34 µM

Provide AC50 for all items below, preserving their order.
1. COc1ccc(NS(=O)(=O)c2ccc3ccccc3c2)c2ncccc12
2. CCOc1cc(C(=O)CSc2nnc(CNc3ccc(Cl)cc3)o2)ccc1NC(=O)CC
3. CCOc1cc(/C=C2/C(=O)ON=C2C)ccc1OCc1ccccc1F

A)
["4.82 µM", "7.73 µM", "6.95 µM"]

State the recorded AC50 for every item in the following list.
1. COc1ccccc1NS(=O)(=O)c1cccc(C(=O)NC2CCN(Cc3ccccc3)CC2)c1
2. CCc1ccc(Nc2n[n+](-c3ccccc3)c(-c3c(Cl)cccc3Cl)s2)cc1
3. COc1cccc(CN(C)C(=O)c2cccc(S(=O)(=O)N3CCN(Cc4ccccc4)CC3)c2)c1OC
4. CC1CCN(Cc2ccc(-c3nnn(CC(=O)Nc4ccccc4Cl)n3)cc2)CC1
5. COc1cc(NC(=O)c2cc3c(Cl)nc4ccccc4c3s2)cc(OC)c1OC

A)
["1.95 µM", "5.4 µM", "4.94 µM", "1.77 µM", "24.4 µM"]

Value sought for every listed molecule: AC50.
1. Cc1ccc(S(=O)(=O)N2CCN(c3ncnc4ccccc34)CC2)cc1
2. COc1ccc(Nc2cc(C)nc(NCc3ccccc3)n2)cc1
3. CC(=O)c1c(C)[nH]c(C(=O)OCC(=O)Nc2ccc(Cl)cc2[N+](=O)[O-])c1C

A)
1: 1.56 µM; 2: 3.9 µM; 3: 0.325 µM

Field: AC50. Fill in for each record below.
1. CC(C)=CCc1cc([C@@H]2COc3c(ccc4c3C=CC(C)(C)O4)C2)c(O)cc1O
2. O=C(c1cc(COc2cccc3cnccc23)on1)N1CCCC(CCCO)C1 (stereo unspecified)
3. CC(Sc1nc2ccccc2c(=O)n1C)C(=O)N(C)C1CCCCC1 (stereo unspecified)
4. O=S(=O)(c1cc(F)ccc1F)N1CCN(c2ncnc3ccccc23)CC1

A)
1. 7.54 µM
2. 0.519 µM
3. 2.27 µM
4. 1.85 µM

Go through the items and report each one's AC50.
1. CC(=O)NC(c1cccs1)c1cc(F)c2cccnc2c1O (stereo unspecified)
2. COc1ccc(NC(=O)C2Cc3c(-c4cccc(C(C)=O)c4)ccnc3O2)cc1OC (stereo unspecified)
3. CN(Cc1cccc(Cl)c1Cl)C(=O)c1cccc(S(=O)(=O)N2CCN(Cc3ccccc3)CC2)c1
4. CCOC(=O)c1c(CSc2ccc(CC)cc2)oc2ccc(O)c(CN(C)C)c12

A)
1. 1.67 µM
2. 0.799 µM
3. 3.38 µM
4. 3.05 µM

====

system: Clone20 osteoblast Shn3 3'UTR firefly luciferase, 24 h; assay: Shn3 3'UTR reporter inhibitors, dose response, cell-based, Clone20 osteoblasts, luminescence, dry powder, set 2 (AID 743417)
Results filed as inconclusive are left out.
MEASURE: AC50

CN(Cc1ccc(OCC(O)CN2CCCCC2)cc1)Cc1ccnc2ccccc12 (stereo not given): 1210 nM

State recorded AC50 for all listed molecules.
1. Cc1cc(Br)c(S(=O)(=O)NCc2ccncc2)cc1C
2. Cc1cc(C)c(O)c(-c2cc(C(=O)Nc3ccc(S(=O)(=O)N4CCOCC4)cc3)[nH]n2)c1
3. COc1ccc(NC(=O)Cn2nnc(-c3ccccc3NS(=O)(=O)c3ccccc3)n2)cc1
4. COc1ccc(CC2(CO)CCN(CC3=Cc4cc(Cl)ccc4OC3)CC2)cc1
5. COc1ccc(-c2cc(C(F)(F)F)nc(S(C)(=O)=O)n2)cc1
6. Cc1cc(C)n(-c2ccc3cccc(NS(C)(=O)=O)c3n2)n1

A)
["1410 nM", "5480 nM", "485 nM", "1330 nM", "4460 nM", "1320 nM"]

I need AC50 for every entry listed below, if you could help.
1. CCOc1ccc2nc(SC3CC(=O)N(c4ccc(C)cc4)C3=O)sc2c1 (stereo not given)
2. CC(Oc1cccc(Br)c1)C(=O)NNC(=O)c1ccccn1 (stereo not given)
3. CCc1c(C)nc2cc(-c3ccc(OC)c(OC)c3)nn2c1NCC1CC1
4. COc1ccc(C[C@H]2COC(=O)[C@@H]2Cc2ccc(OC3OC(CO)C(O)C(O)C3O)c(OC)c2)cc1OC (stereo not given in full)
5. COC(=O)/C=C/S(=O)(=O)c1ccc(NC(C)=O)cc1
6. CC1=C(CO)C(=O)OC([C@@H](C)C2CC[C@H]3C4C[C@H]5O[C@]56[C@@H](O)C=CC(=O)[C@]6(C)C4CC[C@]23C)C1 (stereo not given in full)

A)
15600 nM
3360 nM
5110 nM
4430 nM
7300 nM
674 nM

====

system: Clone20 osteoblast Shn3 3'UTR firefly luciferase, 24 h; test: Shn3 3'UTR reporter inhibitors, dose response, cell-based, Clone20 osteoblasts, luminescence, dry powder, set 2 (AID 743417)
Records with an inconclusive call do not appear.
MEASURE: AC50

Worked cases, AC50 given:
CN1/C(=C\C(=O)CN2C(=O)NC3(CCCCCC3)C2=O)C(C)(C)c2ccccc21: 2.66 µM
Cc1nc2ccc(NC(=O)c3cccc(S(=O)(=O)N(C)c4ccccc4)c3)cc2s1: 7.6 µM
Cc1ccc(-n2cc(CNCCCn3ccnc3C)c(-c3ccc(F)cc3)n2)cc1: 20.6 µM

Answer for every listed entry: what is its AC50? The entries follow.
1. Cc1ccc(-c2nc(NC(=O)c3nn(C)cc3[N+](=O)[O-])sc2C)cc1C
2. CC(C)c1ccc(Oc2cccc3c2S(=O)(=O)N(C2CCCC2)CC(COCc2ccccc2)O3)cc1 (stereo not given)
3. COc1ccc(-c2coc3c(C(=O)NCc4ccc(OC)c(OC)c4)cccc23)c(C)c1

A)
1. 2.25 µM
2. 15.5 µM
3. 0.722 µM

====

system: Clone20 osteoblast Shn3 3'UTR firefly luciferase, 24 h; experiment: Shn3 3'UTR reporter inhibitors, dose response, cell-based, Clone20 osteoblasts, luminescence, dry powder, set 2 (AID 743417)
Inconclusive results are not listed.
MEASURE: AC50

Example entries and their recorded answers appear below.
Cc1ccc(Nc2nc(NCC3CC3)nc3ccsc23)c(C)c1: 5.82 µM
COc1cccc(C(c2nnnn2-c2ccc3c(c2)OCCO3)N2CCC(n3c(=O)[nH]c4ccccc43)CC2)c1OC (stereo not given): 3.74 µM
Fc1ccc2[nH]c3c(N4CCc5ccccc5C4)ncnc3c2c1: 0.466 µM

Hi! Can you tell me AC50 for each of these compounds?
1. Cc1ccc(-c2nc3cccnc3o2)cc1NC(=O)COc1ccc(C(C)(C)C)cc1
2. Cc1cc(C(=O)NC2CCCc3c2cnn3-c2cccc(C)c2C)n(C)n1 (stereo not given)

A)
10.8 µM
< 0.26 µM

====

test system: Clone20 osteoblast Shn3 3'UTR firefly luciferase, 24 h; experiment: Shn3 3'UTR reporter inhibitors, dose response, cell-based, Clone20 osteoblasts, luminescence, dry powder, set 2 (AID 743417)
Records with an inconclusive call do not appear.
For each entry below, report its AC50 value.

COc1ccc(CNc2ncnc3c2[nH]c2ccccc23)cc1: 4190 nM

For each entry beneath this line, provide reported AC50.
1. Cc1cccc(-c2noc(CN(C(=O)C(c3ccccc3)c3ccccc3)C(C)C)n2)c1
2. Oc1cccc2cc(Nc3ccccc3)cnc12
3. CC(=O)Nc1ccc(OCC(=O)Nc2ccc(Cl)c(S(=O)(=O)N3CCOCC3)c2)cc1
4. O=C(NCc1ccc2c(c1)OCO2)c1nc(S(=O)(=O)Cc2ccccc2)ncc1Cl
5. O=C(OCc1ccccc1)c1ccc(NCc2cc(O)ccc2O)cc1
6. COc1ccc(C2/C=C\CN(C(=O)c3ccc(C)cc3)[C@H](Cc3ccccc3)C(=O)N2Cc2ccc(F)cc2)cc1 (stereo not given in full)

A)
6270 nM
644 nM
1590 nM
6400 nM
711 nM
772 nM

Please give AC50 for each item listed below.
1. COc1cc(OC)c(OC)cc1CNC(=O)c1cccc(S(=O)(=O)N2CCc3ccccc3C2)c1
2. FC(F)(F)c1nc(-c2cccs2)ncc1-c1nnnn1-c1ccc(Cl)cc1

A)
1: 2390 nM; 2: 2100 nM

Q) Value lookup for AC50; key = COc1ccc(CC2NCC(O)C2OC(C)=O)cc1 (stereo not given)
A) < 260 nM

====

system: Clone20 osteoblast Shn3 3'UTR firefly luciferase, 24 h; assay: Shn3 3'UTR reporter inhibitors, dose response, cell-based, Clone20 osteoblasts, luminescence, dry powder, set 2 (AID 743417)
Results filed as inconclusive are left out.
Field: AC50. Provide a value for each of the compounds that follow.

C=C1CC(Cn2cc(Br)c(=O)[nH]c2=O)(c2ccc(-c3ccccc3)cc2)OC1=O (centres undefined): 2670 nM
C=C1CC(COc2ccc3c(C)c(Cl)c(=O)oc3c2)(c2ccccc2)OC1=O (centres undefined): 4820 nM
COCCC1CCCCN1C(=O)c1cc(COc2ccc(-n3cncn3)cc2)on1 (centres undefined): 570 nM
NS(=O)(=O)c1ccc(CCNCc2cc(Br)ccc2OCc2ccccc2)cc1: 2920 nM
CCCCC(=O)NC(c1ccc(OC)c(OC)c1)c1ccc2cccnc2c1O (centres undefined): 1360 nM

Give AC50 for each of the items listed below.
1. CCOC(=O)Oc1c(OC)cc(C(=O)O[C@@H]2C[C@@H]3CN4CCc5c([nH]c6cc(OC)ccc56)[C@H]4C[C@@H]3[C@H](C(=O)OC)[C@H]2OC)cc1OC
2. CCOC(=O)Cc1csc(SCC(=O)c2c(N)n(CC(C)C)c(=O)n(C)c2=O)n1

A)
10700 nM
2350 nM

// each listed compound needs a value for AC50
1. COc1cccc(CNc2ncnc3cc(Cl)ccc23)c1
2. CC(C)(C)OC(=O)NCc1ccc(CNC(=O)c2nc[nH]c2C(=O)NCc2ccc(CNC(=O)OC(C)(C)C)cc2)cc1

A)
1: 3730 nM; 2: 5890 nM
